EXPERIMENTAL_SYSTEM: dimeric human IgG-lambda (Southern Biotech, Birmingham AL)
TEST_PROTOCOL: BLI (ForteBio), biotinylated ligand on sensor, as in Example 2
pKd: −log10 of the molar value.
Overview of recorded pKd for various binders
READOUT_NAME: pKd

[[record]]
binder = "affinity ligand SEQ ID NO: 90 (designed binder, biotinylated (AviTag system)) MGGGGSAAAGDEAQCWENQGAAYAARGDYDRAIEYYERALELDPNNAWAWWELGVAYAARGDYDRAIEYYERALELDPDDATTWSRLGHAYAARGDYDRAIEYYVRALELDPEDETARYLLEHARRARQGQAGQGGGSGLNDIFEAQKIEWHECHHHHHH"
readout_name = "pKd"
result = "> 9.00"

[[record]]
binder = "affinity ligand SEQ ID NO: 92 (designed binder, biotinylated (AviTag system)) MGGGGSAAAGDEAQRWENQGAAYAARGDYDRAIEYYERALELEPNNAWAWWELGVAYAARGDYDRAIEYYERALELDPDDATAWSRLGHAYAARGDYDRAIGYYERALELDPENETARYLLEHARRARQGQAGQGGGSGLNDIFEAQKIEWHECHHHHHH"
readout_name = "pKd"
result = "> 9.00"

[[record]]
binder = "affinity ligand SEQ ID NO: 41 (designed binder, biotinylated (AviTag system)) MAQAAAGDEAQRWETLGAAYAARGDYDRAIEYYQRALELDPNNAWAWWELGVAYAARGDYDRAIEYYQRALELDPDDAAAWRRLGHAYAARGDYDRAIEYYERALELDPEDELARRILEDARRARQGQAGQGGGSGLNDIFEAQKIEWHECHHHHHH"
readout_name = "pKd"
result = 8.52

[[record]]
binder = "affinity ligand SEQ ID NO: 89 (designed binder, biotinylated (AviTag system)) MGGGGSAAAGDEAQHWENQGAAYAARGDYDRAIEYYGRALELDPNNAWAWWELGVAYAARGDYDRAIEYYERALELDPDDATTWSRLGHAYAARGDYDRAIEYYERALELDPEDETARYLLEHARRARQGQAGQGGGSGLNDIFEAQKIEWHECHHHHHH"
readout_name = "pKd"
result = "> 9.00"

